- Test system: HCV replicon cells
- Method summary: HCV replicon FRET / luciferase assay (96-well plates)
- Format: cell-based
- Condition: Hepatitis C virus, Table 1a; HCV replicon; read-out: EC50
Assay metric: EC50

QUERY: Field request: EC50 | item: "CNC(=O)c1c(-c2ccc(F)cc2)oc2ccc(-c3ccc(NC(=O)OC(C)(C)C)cc3)cc12"
RESULT: > 0.4 µM

QUERY: Request the reported EC50 associated with "CCNC(=O)C(C)(C)NC(=O)c1cccc(-c2ccc3oc(-c4ccc(F)cc4)c(C(=O)NC)c3c2)c1"
RESULT: 0.25 to 1 µM

QUERY: Request the reported EC50 associated with "CNC(=O)c1c(-c2ccc(F)cc2)oc2ccc(-c3ccc(C(=O)N4CCCC4)cc3)cc12"
RESULT: 1 to 10 µM

QUERY: What EC50 value was documented for this molecule, CNC(=O)c1c(-c2ccc(F)cc2)oc2ccc(-c3cccc(C(=O)NC(C)CC(=O)O)c3)cc12 (stereo not drawn) ?
RESULT: > 10 µM

QUERY: Fill blank: measured EC50 of the molecule "CNC(=O)c1c(-c2ccc(F)cc2)oc2ccc(-c3cccc(C(=O)NS(C)(=O)=O)c3)cc12" is ____.
RESULT: > 10 µM

QUERY: Fill in: EC50 of "CNC(=O)c1c(-c2ccc(F)cc2)oc2ccc(-c3cccc(S(C)(=O)=O)c3)cc12" is ___
RESULT: 1 to 10 µM

QUERY: Query (molecule): "CNC(=O)c1c(-c2ccc(F)cc2)oc2ccc(-c3cccc(S(=O)(=O)N4CCOCC4)c3)cc12" ; field requested: EC50
RESULT: > 10 µM

QUERY: I would be grateful if you could share the reported EC50 for "CNC(=O)c1c(-c2ccc(F)cc2)oc2ccc(-c3ccc(C(=O)O)cc3)cc12" .
RESULT: 1 to 10 µM

QUERY: // returns reported EC50 for input CNC(=O)c1c(-c2ccc(F)cc2)oc2ccc(-c3cccc(C(=O)N4CCCCC4C)c3)cc12 (stereo not drawn) [drawing 208]
RESULT: 1 to 10 µM

Cited source for all entries: patent US8309558B2
